Item-by-item account of melting point

O=C1O[C@@H](CNC(=S)C(F)F)CN1c1cc(F)c(N2CCS(=O)(=O)CC2)c(F)c1; 88 to 90 °C
CCC(c1cc2c(-c3ccc(C(F)(F)F)n(C)c3=O)c(F)cc(Cl)c2o1)S(C)=O (stereo not given); 125 to 127 °C
O=C(Nc1ccc2nc(CN3CCCC3)ccc2c1)c1ccc(-c2ccc(F)cc2)nc1; 210 °C
Cc1nc2c3c(c(C(=O)NCC(C)O)cc2n1C)CCC1(Cc2ccccc2C1)N3 (stereo not given); 224 to 225 °C
Oc1ccc2c(c1)CCNC21CCSCC1; 211 to 213 °C
FC(F)(F)c1cccc(N2CCC(N=Cc3cnc4ccccc4c3)=N2)c1; 209 to 210 °C

Asked: Consider the compound shown here: `O=C(c1ccccc1[N+](=O)[O-])C1CCN(C(=O)C(F)(F)F)CC1` What is its recorded melting point?
Given back: 126 °C

Asked: Can you share its melting point? I mean this compound: `O=C(O)CN(CF)C(=O)c1ccccc1`
Given back: 233 to 235 °C

Asked: Dear colleague, I am looking for the recorded melting point of the following compound: `O=c1c(O)nc2cccnc2n1-c1ccc(Cl)cc1`
Given back: > 300 °C

Asked: For the compound `CCc1cc(CC)nc(S)n1` , what melting point is on record?
Given back: 82 to 84.5 °C

Asked: Reported melting point, compound `COc1cc2ncc(C#N)c(Nc3ccc4sc(C)nc4c3)c2cc1OC` : ____
Given back: 118 to 120 °C

Asked: Report melting point for `CN(C(=O)OC(C)(C)C)c1cc(Oc2cc(C(C)(C)C)c(O)cc2C(C)(C)C)ccc1N` please.
Given back: 208 to 210 °C

Asked: Item `O=C(CCC1CCN(Cc2ccccc2)CC1)c1ccc(N2CCCC2)cc1` has what recorded melting point?
Given back: 144 to 145 °C

Asked: Which melting point value belongs to CNC(=O)NCc1cncn1C1c2ccccc2CCC1(C)C (stereo not given) ?
Given back: 120 °C

Asked: Give its melting point value. Item: CC(=O)N(C)C1CCc2c([nH]c3ccccc23)C1 (stereo not given)
Given back: 215 to 216 °C

Asked: What measured melting point goes with `COc1cc2ncnc(Nc3ccc4ccccc4n3)c2cc1OC` ?
Given back: 215 to 216 °C

Asked: Would you kindly share the measured melting point for O=C(C=Cc1ccc(CO)cc1)N1CCc2c([nH]c3ccccc23)C1c1ccc2c(c1)OCO2 (stereo not given) ?
Given back: 206 °C

Asked: Quick one: melting point of CCOC(=O)C1=CC(=O)C2(C(=O)c3ccc(Cl)cc3)OC2O1 (stereo not given) ?
Given back: 100 °C

Asked: Need melting point of O=C(O)COc1cccc2c1CC(S(=O)(=O)Cc1ccccc1)c1sc(-c3cccc(F)c3)nc1-2 (stereo not given) , thanks.
Given back: 215 to 217 °C

Asked: Report melting point for `COc1ccc(-c2cc(=O)n(CC3CC3)nc2-c2ccc(OC)c(F)c2)cc1` please.
Given back: 132 to 133 °C

###

Reported melting point values for the following compounds.

CNC(=O)C(C)Oc1ncn(-c2cccc(Cl)c2)n1 (stereo unspecified); 120 to 122 °C
CC(C)(C)OC(=O)NCCNC(=O)c1cc(Cl)cc(Cl)n1; 126 to 127 °C
CCCN(CC)c1cc(C)nc(Oc2c(C)ccc(Cl)c2C)c1C; 74 to 76 °C
O=S(=O)(Nc1cccc(CCOCc2ccc(-c3ccc(Cl)c(Cl)c3)cc2F)c1)C(F)(F)F; 102 to 104 °C
CN(C)S(=O)(=O)N1CCNC1=O; 129 °C

Asked: Name the reported melting point value associated with the compound `CCOP(=O)(CC(=O)NC1CC1)OCC`
Given back: 51 to 56 °C

###

Experimental endpoint: melting point

In the examples that follow, each entry is paired with its recorded melting point.
CCCCCCCCCCc1ccc(C(N)(CO)CO)cc1; 136 to 137 °C
COc1ccc(C2CCCN(C)C2)c2c1NC(=O)C2 (stereo unspecified); 170 °C
Cc1cc2c(cc1N1CC=CC1)OC(=O)C2C (stereo unspecified); 81 to 82 °C

Asked: So what's the measured melting point for this one? Nc1nc(OC2CCCC2)c2ncn(C3C=CC(CO)C3)c2n1 (stereo unspecified)
Given back: 188 to 190 °C

Asked: // query melting point value for entry `CCCc1nc2c(N)nc3cc(OCCCNC(=O)OC(C)(C)C)ccc3c2s1`
Given back: 146 to 149 °C

Asked: Fill blank: measured melting point of the molecule OCC1OC(SCCCc2ccccc2)C(O)C(O)C1O (stereo unspecified) is ____.
Given back: 122 to 123 °C

Asked: Quick one: melting point for `COc1ccccc1NC(=O)Nc1ncnc(Nc2ccccc2-c2ccccc2)n1` ?
Given back: 219 °C

Asked: Give the measured melting point of `CCCc1c(OCC#CCCCC(=O)NCCCCc2cccnc2)ccc(C(C)=O)c1O` .
Given back: 77 to 80 °C

Asked: So what's the measured melting point for this one? CNC1=NN(C(=O)C(C)(C)C)C(C)S1 (stereo unspecified)
Given back: 102 to 103 °C

Asked: Dear colleague, I am looking for the recorded melting point of the following molecule: `O=C(O)c1cc(Cl)cc2c1OCCO2`
Given back: 180 °C

Asked: Which melting point reading was recorded for the molecule `CP(=O)(O)c1ccc(C(=O)O)cc1` ?
Given back: 238 to 240 °C

###

melting point listing for selected molecules.

Previously resolved entries follow.
CC(C)CCNC(=O)c1ccccc1-c1ccccc1CNC(=O)Nc1ccccc1; 194 °C
CC(C)c1cccc(C(C)C)c1NS(=O)(=O)CC(=O)NCC(c1ccccc1)C1CCCC1 (centres undefined); 168 to 170 °C
CCCCCc1c(-c2ccc3cc(OCC#N)ccc3c2)n(Cc2ccccc2)c2ccccc12; 109 to 112 °C

Asked: Which melting point reading was recorded for the molecule `CN(C)S(=O)(=O)c1ccccc1-c1cnc(N)c(C(=O)Nc2cccnc2)n1` ?
Given back: 222 to 223 °C

###

Experimental endpoint: melting point

Asked: Item COc1ccc(S(=O)(=O)N2C(=O)C(c3ccccc3OC)(N3Cc4ccccc4C3C(=O)N(C)C)c3cc(Cl)ccc32)c(OC)c1 (configuration not stated) has what recorded melting point?
Given back: 168 °C

Asked: Request the reported melting point associated with `CCOCc1nc2c(N)nc3cc(OCCCN4CCCC4=O)ccc3c2n1CCCCN1CCCS1(=O)=O`
Given back: 142 to 144 °C

Asked: What value of melting point has been recorded for this entry: CCOCc1cnc(NC(=O)C(Cc2ccc(F)cc2)c2ccc(S(C)(=O)=O)cc2)cn1 (configuration not stated)
Given back: 99 to 100 °C

###

The compounds listed here are annotated with their melting point.

Some compounds with recorded melting point:
CCCCCN1C(=O)C(CCC#N)(NC(=O)c2ccc(Cl)c(Cl)c2)c2ccccc21 (configuration not stated); 79 to 84 °C
CN(CS(C)(=O)=O)C(=O)Nc1ccc(Cl)c(Cl)c1; 159 °C
CCn1nc(-c2ccccc2)c(C(C)=O)c([N+](=O)[O-])c1=O; 226 to 227 °C
CCOC(=O)C1=C(C)NC(C)=C(C(=O)OCC)C1c1ccccc1/C=C/C(=O)OC1CCCCC1; 175 to 177 °C
CC1C(=S)Nc2c(F)cc(F)cc21 (configuration not stated); 151 to 152 °C
C=CCC(C#N)(C#N)Cc1ccc(C)cc1; 74.5 °C

Asked: Give its melting point value. Item: `CCC1=Cc2cc(OCC(=O)O)c(Cl)c(Cl)c2C1=O`
Given back: 205 to 207 °C

Asked: # lookup: melting point of `N#CC(=Cc1ccc(O)c(O)c1)C(N)=O`
Given back: 247 °C

Asked: Can you look up the measured melting point of `CCOCc1nc(C(C)(C)O)c(C(=O)O)n1Cc1ccc(-c2ccccc2-c2nnn[nH]2)cc1` for me?
Given back: 150 °C

Asked: Fill in the blank: the reported melting point of CC(C)C(NC(=O)OC(C)(C)C)C(=O)OCC1OC(n2cc(C=CBr)c(=O)[nH]c2=O)CC1Cl (configuration not stated) is ____.
Given back: 75 to 76 °C

Asked: Fill in the blank: the reported melting point of CCC(CO)NCC(O)COc1ccccc1C#N (configuration not stated) is ____.
Given back: 106 to 108 °C

Asked: Quick check: melting point of CC(Oc1ncn(-c2cccc(F)c2)n1)C(=O)O (configuration not stated) ?
Given back: 177 to 179 °C

Asked: Requested field: melting point. Item: `CC(=O)Oc1ccc(N2CCN(C(C)=O)CC2)c(Br)c1`
Given back: 75 °C

Asked: Which melting point reading was recorded for the compound `CCCCCc1c(C(C)C)nc(C(C)C)c(CO)c1-c1ccc(CC)cc1` ?
Given back: 87 to 88 °C

Asked: Recorded melting point for O=C(O)[C@H](Cc1ccc(F)cc1)[C@@H](O)c1ccc(F)cc1 (racemic) , please?
Given back: 169 to 170 °C

Asked: Can you share its melting point? I mean this compound: `CC(C)N1CCN(CCN2CCN(c3noc4cc(F)ccc34)CC2)C1=O`
Given back: 125 to 127 °C
